assay: molar heat capacity at constant pressure; details: 281.15 K; 101.33 kPa; Liquid; Large sample (1 g) DSC
Experimental endpoint: molar heat capacity at constant pressure (J/K/mol)

Recorded molar heat capacity at constant pressure, per entry:
compound="COCCOCCOCCOCCO [3,6,9,12-tetraoxatridecanol]" quantitative_result=446
compound="CCCCCCCCOCCOCCOCCO [2-[2-[2-(octyloxy)ethoxy]ethoxy]ethanol]" quantitative_result=566
compound="CCCCOCCO [2-butoxyethan-1-ol]" quantitative_result=264.6
compound="CCOCCOCCO [3,6-dioxa-1-octanol]" quantitative_result=297.6

(A) CCCOCCO [2-propoxyethanol]
(B) CCCCCCOCCOCCO [2-(2-hexyloxyethoxy)ethanol]
Request: I need your help: which of the pair A , B has higher molar heat capacity at constant pressure? Your choice should be expressed through its label.
Response: B

###

experiment: molar heat capacity at constant pressure; details: 317.15 K; 101.33 kPa; Liquid; Large sample (1 g) DSC
Experimental endpoint: molar heat capacity at constant pressure (J/K/mol)

compound="COCCOCCOCCO [2-[2-(2-methoxyethoxy)ethoxy]ethanol]" experimental_endpoint="molar heat capacity at constant pressure" quantitative_result=361.2
compound=COCCOCCO experimental_endpoint="molar heat capacity at constant pressure" quantitative_result=272.8
compound=CCCOCCO experimental_endpoint="molar heat capacity at constant pressure" quantitative_result=249.8
compound=CCCCCCOCCOCCO experimental_endpoint="molar heat capacity at constant pressure" quantitative_result=429.9

(I) CCCOCCOCCO
(II) CCOCCO
Request: // pick min by molar heat capacity at constant pressure: I , II Mark your answer with the label of the selected entry.
Response: II
(II: 218 J/K/mol, I: 336.9 J/K/mol)

###

assay: molar heat capacity at constant pressure; conditions: 329.15 K; 101.33 kPa; Liquid; Large sample (1 g) DSC
Experimental endpoint: molar heat capacity at constant pressure (J/K/mol)

molecule="CCCCCCCCOCCOCCOCCO [2-[2-[2-(octyloxy)ethoxy]ethoxy]ethanol]" quantitative_result=591.6
molecule=CCCOCCOCCO quantitative_result=342

(A) CCCCOCCOCCO
(B) CCCOCCO
Request: Returns: the argument ( A or B ) having the larger molar heat capacity at constant pressure. Kindly state the label of the option you pick.
Response: A

###

assay: molar heat capacity at constant pressure; conditions: 293.15 K; 101.33 kPa; Liquid; Large sample (1 g) DSC
Experimental endpoint: molar heat capacity at constant pressure (J/K/mol)

As a guide, the following entries are already answered.
compound="CCOCCOCCO [3,6-dioxa-1-octanol]" experimental_endpoint="molar heat capacity at constant pressure" quantitative_result=300.4
compound="COCCOCCO [2-(2-methoxyethoxy)ethanol]" experimental_endpoint="molar heat capacity at constant pressure" quantitative_result=266.1
compound="CCOCCO [2-ethoxyethan-1-ol]" experimental_endpoint="molar heat capacity at constant pressure" quantitative_result=209.3

(P) CCCOCCO [2-propoxyethanol]
(Q) COCCOCCOCCO [2-[2-(2-methoxyethoxy)ethoxy]ethanol]
Request: Returns: the label, P or Q , whose recorded molar heat capacity at constant pressure is the lower number. Kindly give the label for the entry you pick.
Response: P

(a) CCCOCCOCCO [2-(2-propoxyethoxy)ethanol]
(b) CCCCCCCCOCCOCCOCCO [2-[2-[2-(octyloxy)ethoxy]ethoxy]ethanol]
Request: Could you kindly indicate whether a or b has the higher molar heat capacity at constant pressure value? API: response body contains the label of the selected item.
Response: b
(b: 571.3 J/K/mol, a: 327.5 J/K/mol)
